// data source = paper PMC5666081

Biological target: T1, ΔN-CXCL13 (murine CXCL13 residues 31-109 with the initiating methionine) (murine)
T1 chain: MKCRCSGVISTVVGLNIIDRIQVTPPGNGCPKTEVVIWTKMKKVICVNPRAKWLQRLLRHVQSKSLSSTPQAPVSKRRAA
Experiment: NMR titration; [15N,1H] correlation spectra at different protein concentrations; monomer and dimer signals in slow exchange; KD of dimer to monomers from integrated signals of monomer and dimer; T1/T2 relaxation; 20 mM phosphate, 100 mM NaCl, pH 6, 298 K; addition of HS tetrasaccharide dp4 (50 µM on 50 µM ΔN-CXCL13) increases the dimer signals
Conditions: both partners purified
MEASURE: Kd
Please state the number and follow it with the unit.

Read the entry ΔN-CXCL13 (murine CXCL13 residues 31-109 with the initiating methionine) (domain or fragment, initiating Met kept (piece 1); paper residue numbers are mature, offset +21 to the precursor; two disulfides expected from the chemokine fold / initiating Met kept (piece 1); paper residue numbers …) MKCRCSGVISTVVGLNIIDRIQVTPPGNGCPKTEVVIWTKMKKVICVNPRAKWLQRLLRHVQSKSLSSTPQAPVSKRRAA and write its reported Kd.
300 µM
